species: Rattus norvegicus; experiment: Open TG-GATES - Regimen: Daily Repeat; format: toxicity, organism-based, Sprague-Dawley; set-up: regimen Daily Repeat, gender Male, age 6 weeks; details: in vivo, po, 0 mg/kg, 72 h, tissue Plasma, route gavage, dose level Control, time 3 day
Outcome Measure: TG (mg/dL)

[[record]]
molecule = "CN/C(=N/CCSCc1nc[nH]c1C)NC#N"
value_measured = 103

[[record]]
molecule = "O=C(OC[C@H]1O[C@@H](OC(=O)c2cc(O)c(O)c(OC(=O)c3cc(O)c(O)c(O)c3)c2)[C@H](OC(=O)c2cc(O)c(O)c(OC(=O)c3cc(O)c(O)c(O)c3)c2)[C@@H](OC(=O)c2cc(O)c(O)c(OC(=O)c3cc(O)c(O)c(O)c3)c2)[C@@H]1OC(=O)c1cc(O)c(O)c(OC(=O)c2cc(O)c(O)c(O)c2)c1)c1cc(O)c(O)c(OC(=O)c2cc(O)c(O)c(O)c2)c1"
value_measured = 112.8

[[record]]
molecule = "CN1C(=O)CCS(=O)(=O)C1c1ccc(Cl)cc1 (stereo not drawn)"
value_measured = 90

[[record]]
molecule = "CNC(=C[N+](=O)[O-])NCCSCc1ccc(CN(C)C)o1"
value_measured = 92.4

[[record]]
molecule = "NC1=NC(=O)C(c2ccccc2)O1 (stereo not drawn)"
value_measured = 88.6

[[record]]
molecule = "CCOc1ccc(NC(C)=O)cc1"
value_measured = 102.4

[[record]]
molecule = "Brc1ccccc1"
value_measured = 101

[[record]]
molecule = "CN(C)CCC(c1ccc(Cl)cc1)c1ccccn1 (stereo not drawn)"
value_measured = 87.8


====

species on record: Rattus norvegicus; assay: Open TG-GATES - Regimen: Daily Repeat; type: toxicity, organism-based, Sprague-Dawley; parameters: regimen Daily Repeat, gender Male, age 6 weeks; settings: in vivo, po, 0 mg/kg, […], tissue Plasma, route gavage, dose level Control, time 7 day
# K per entry
Outcome Measure: K (meq/L)

[[record]]
molecule = "NC1=NC(=O)C(c2ccccc2)O1 (stereo unspecified)"
value_measured = 3.8

[[record]]
molecule = "CNC(=C[N+](=O)[O-])NCCSCc1ccc(CN(C)C)o1"
value_measured = 3.8

[[record]]
molecule = "CN(C)CCC(c1ccc(Cl)cc1)c1ccccn1 (stereo unspecified)"
value_measured = 4.2

[[record]]
molecule = "CC(C)NNC(=O)c1ccncc1"
value_measured = 4

[[record]]
molecule = "CCCc1cc(=O)[nH]c(=S)[nH]1"
value_measured = 5.2

[[record]]
molecule = "Nc1c2c(nc3ccccc13)CCCC2"
value_measured = 4.2

[[record]]
molecule = "CN1C(=O)CCS(=O)(=O)C1c1ccc(Cl)cc1 (stereo unspecified)"
value_measured = 4.3

[[record]]
molecule = "Cc1nnc2n1-c1ccc(Cl)cc1C(c1ccccc1Cl)=NC2"
value_measured = 4.3

[[record]]
molecule = "CN/C(=N/CCSCc1nc[nH]c1C)NC#N"
value_measured = 3.9

[[record]]
molecule = "CCOc1ccc(NC(C)=O)cc1"
value_measured = 4.2

[[record]]
molecule = "COC(=O)C1=C(C)NC(C)=C(C(=O)OC)C1c1ccccc1[N+](=O)[O-]"
value_measured = 4


====

species: Rattus norvegicus; test: Open TG-GATES - Regimen: Single; assay type: toxicity, organism-based, Sprague-Dawley; design: regimen Single, gender Male, age 6 weeks; settings: in vivo, po, 1000 mg/kg, 9 h, tissue Plasma, route gavage, dose level High
Property: TP; scope: individual molecules
Outcome Measure: TP (g/dL)

[[record]]
smiles = "Cc1nnc2n1-c1ccc(Cl)cc1C(c1ccccc1Cl)=NC2"
unit_string = "g/dL"
value_measured = 5.1

[[record]]
smiles = "CNC(=C[N+](=O)[O-])NCCSCc1ccc(CN(C)C)o1"
unit_string = "g/dL"
value_measured = 5.5

[[record]]
smiles = "CN/C(=N/CCSCc1nc[nH]c1C)NC#N"
unit_string = "g/dL"
value_measured = 5.5

[[record]]
smiles = "COC(=O)C1=C(C)NC(C)=C(C(=O)OC)C1c1ccccc1[N+](=O)[O-]"
unit_string = "g/dL"
value_measured = 5.5

[[record]]
smiles = "O=C(OC[C@H]1O[C@@H](OC(=O)c2cc(O)c(O)c(OC(=O)c3cc(O)c(O)c(O)c3)c2)[C@H](OC(=O)c2cc(O)c(O)c(OC(=O)c3cc(O)c(O)c(O)c3)c2)[C@@H](OC(=O)c2cc(O)c(O)c(OC(=O)c3cc(O)c(O)c(O)c3)c2)[C@@H]1OC(=O)c1cc(O)c(O)c(OC(=O)c2cc(O)c(O)c(O)c2)c1)c1cc(O)c(O)c(OC(=O)c2cc(O)c(O)c(O)c2)c1"
unit_string = "g/dL"
value_measured = 5.4


====

species on record: Rattus norvegicus; experiment: Open TG-GATES - Regimen: Single; format: toxicity, organism-based, Sprague-Dawley; parameters: regimen Single, gender Male, age 6 weeks; details: in vivo, po, 1000 mg/kg, 24 h, tissue Plasma, route gavage, dose level High
The threshold is 0.01 mg/dL. Values of DBIL beneath it are tagged Fulfilled; values meeting or exceeding it are tagged Not fulfilled.

[[record]]
smiles = "CNC(=C[N+](=O)[O-])NCCSCc1ccc(CN(C)C)o1"
category = "Not fulfilled"

[[record]]
smiles = "Cc1nnc2n1-c1ccc(Cl)cc1C(c1ccccc1Cl)=NC2"
category = "Not fulfilled"

[[record]]
smiles = "COC(=O)C1=C(C)NC(C)=C(C(=O)OC)C1c1ccccc1[N+](=O)[O-]"
category = "Not fulfilled"

[[record]]
smiles = "CN/C(=N/CCSCc1nc[nH]c1C)NC#N"
category = "Not fulfilled"

[[record]]
smiles = "O=C(OC[C@H]1O[C@@H](OC(=O)c2cc(O)c(O)c(OC(=O)c3cc(O)c(O)c(O)c3)c2)[C@H](OC(=O)c2cc(O)c(O)c(OC(=O)c3cc(O)c(O)c(O)c3)c2)[C@@H](OC(=O)c2cc(O)c(O)c(OC(=O)c3cc(O)c(O)c(O)c3)c2)[C@@H]1OC(=O)c1cc(O)c(O)c(OC(=O)c2cc(O)c(O)c(O)c2)c1)c1cc(O)c(O)c(OC(=O)c2cc(O)c(O)c(O)c2)c1"
category = "Fulfilled"


====

species on record: Rattus norvegicus; assay: Open TG-GATES - Regimen: Single; type: toxicity, organism-based, Sprague-Dawley; design: regimen Single, gender Male, age 6 weeks; conditions: in vivo, po, 1000 mg/kg, 9 h, tissue Plasma, route gavage, dose level High
Outcome Measure: CRE (mg/dL)

[[record]]
smiles = "CNC(=C[N+](=O)[O-])NCCSCc1ccc(CN(C)C)o1"
outcome_measure = "CRE"
value_measured = 0.3

[[record]]
smiles = "CN/C(=N/CCSCc1nc[nH]c1C)NC#N"
outcome_measure = "CRE"
value_measured = 0.4

[[record]]
smiles = "Cc1nnc2n1-c1ccc(Cl)cc1C(c1ccccc1Cl)=NC2"
outcome_measure = "CRE"
value_measured = 0.1

[[record]]
smiles = "COC(=O)C1=C(C)NC(C)=C(C(=O)OC)C1c1ccccc1[N+](=O)[O-]"
outcome_measure = "CRE"
value_measured = 0.2

[[record]]
smiles = "O=C(OC[C@H]1O[C@@H](OC(=O)c2cc(O)c(O)c(OC(=O)c3cc(O)c(O)c(O)c3)c2)[C@H](OC(=O)c2cc(O)c(O)c(OC(=O)c3cc(O)c(O)c(O)c3)c2)[C@@H](OC(=O)c2cc(O)c(O)c(OC(=O)c3cc(O)c(O)c(O)c3)c2)[C@@H]1OC(=O)c1cc(O)c(O)c(OC(=O)c2cc(O)c(O)c(O)c2)c1)c1cc(O)c(O)c(OC(=O)c2cc(O)c(O)c(O)c2)c1"
outcome_measure = "CRE"
value_measured = 0.4


====

species: Rattus norvegicus; test: Open TG-GATES - Regimen: Daily Repeat; format: toxicity, organism-based, Sprague-Dawley; parameters: regimen Daily Repeat, gender Male, age 6 weeks; details: in vivo, po, 300 mg/kg, 72 h, tissue Blood, route gavage, dose level Middle, time 3 day
Outcome Measure: Bas (%)

[[record]]
smiles = "CNC(=C[N+](=O)[O-])NCCSCc1ccc(CN(C)C)o1"
value_measured = 0

[[record]]
smiles = "Cc1nnc2n1-c1ccc(Cl)cc1C(c1ccccc1Cl)=NC2"
value_measured = 0.2

[[record]]
smiles = "CCOc1ccc(NC(C)=O)cc1"
value_measured = 0

[[record]]
smiles = "COC(=O)C1=C(C)NC(C)=C(C(=O)OC)C1c1ccccc1[N+](=O)[O-]"
value_measured = 0.4

[[record]]
smiles = "O=C(OC[C@H]1O[C@@H](OC(=O)c2cc(O)c(O)c(OC(=O)c3cc(O)c(O)c(O)c3)c2)[C@H](OC(=O)c2cc(O)c(O)c(OC(=O)c3cc(O)c(O)c(O)c3)c2)[C@@H](OC(=O)c2cc(O)c(O)c(OC(=O)c3cc(O)c(O)c(O)c3)c2)[C@@H]1OC(=O)c1cc(O)c(O)c(OC(=O)c2cc(O)c(O)c(O)c2)c1)c1cc(O)c(O)c(OC(=O)c2cc(O)c(O)c(O)c2)c1"
value_measured = 0

[[record]]
smiles = "CN/C(=N/CCSCc1nc[nH]c1C)NC#N"
value_measured = 0

